target_desc: Heat shock factor protein 1 (Mus musculus, UniProt P38532)
Sequence (P38532 whole entry): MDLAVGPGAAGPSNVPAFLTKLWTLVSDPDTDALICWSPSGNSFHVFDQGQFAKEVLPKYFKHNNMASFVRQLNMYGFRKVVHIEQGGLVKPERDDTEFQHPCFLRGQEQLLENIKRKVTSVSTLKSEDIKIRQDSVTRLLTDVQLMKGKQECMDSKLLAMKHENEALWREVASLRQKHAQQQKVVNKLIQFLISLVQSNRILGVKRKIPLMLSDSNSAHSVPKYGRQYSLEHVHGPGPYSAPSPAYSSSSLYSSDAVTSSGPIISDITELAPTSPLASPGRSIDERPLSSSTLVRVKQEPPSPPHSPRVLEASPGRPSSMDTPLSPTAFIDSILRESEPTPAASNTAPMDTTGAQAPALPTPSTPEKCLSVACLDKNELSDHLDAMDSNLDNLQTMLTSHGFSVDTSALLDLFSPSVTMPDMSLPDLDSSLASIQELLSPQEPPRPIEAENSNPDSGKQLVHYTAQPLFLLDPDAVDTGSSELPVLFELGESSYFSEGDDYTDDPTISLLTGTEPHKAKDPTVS
assay_overview: HSF1 potentiators in luciferase reporter cells, confirmation, cell-based, NIH3T3, luminescence, dose retest (AID 435004);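 also: stress induced by proteasome inhibitor MG132 added 30 min after compound; luciferase reporter driven by HSF1 response element in NIH3T3 cells; actives raise luminescence as potentiators of the MG132 stress response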
Assay type: functional
Calls of active or inactive are those of the source.
Answer with one of the outcomes given here: active, inactive

These solved cases illustrate the format of a correct answer.
- compound: "O=C1CCCN2N=C(SCC(=O)Nc3ccc(Br)cc3)SC2=N1"
  assigned_label: "inactive"
- compound: "CCOC(=O)c1c(C)c(C(=O)Nc2ccc3c(c2)OCO3)c(C)n1C"
  assigned_label: "inactive"
- compound: "c1ccc(SCCOCCN2CCOCC2)cc1"
  assigned_label: "inactive"
- compound: "C=CCNCCOCCSc1ccc(Cl)cc1"
  assigned_label: "inactive"
- compound: "CC1CN(C(=O)CS(=O)(=O)Cc2ccccc2)CC(C)O1 (stereo unspecified)"
  assigned_label: "inactive"

Pending compound:
Status in this test for CSc1ccc(C2C(C#N)=C(N)N(c3ccccc3)C3=C2C(=O)CCC3)cc1 (stereo unspecified) ?
active

* * *

These compounds were tested on Cytochrome P450 1A2 (Homo sapiens, UniProt P05177); AC50 is the recorded read-out.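 Also: PubChem cytochrome P450 panel assay, CYP1A2 panel member.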
Sequence (P05177 whole entry): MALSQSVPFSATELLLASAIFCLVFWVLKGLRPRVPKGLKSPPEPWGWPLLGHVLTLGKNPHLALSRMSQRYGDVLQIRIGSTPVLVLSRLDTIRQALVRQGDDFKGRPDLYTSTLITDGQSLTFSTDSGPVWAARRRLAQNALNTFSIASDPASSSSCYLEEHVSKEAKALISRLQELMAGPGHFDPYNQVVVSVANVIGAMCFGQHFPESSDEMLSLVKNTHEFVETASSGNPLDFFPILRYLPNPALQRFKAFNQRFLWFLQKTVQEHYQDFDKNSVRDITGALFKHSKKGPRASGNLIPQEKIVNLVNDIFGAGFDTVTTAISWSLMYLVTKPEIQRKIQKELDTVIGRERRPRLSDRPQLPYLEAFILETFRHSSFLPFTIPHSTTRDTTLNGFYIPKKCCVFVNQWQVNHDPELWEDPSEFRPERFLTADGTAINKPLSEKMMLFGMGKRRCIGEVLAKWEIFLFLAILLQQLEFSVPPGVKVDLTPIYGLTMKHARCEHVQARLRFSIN

// known answers, use as guide
- compound: "Oc1ccc2c3c1O[C@H]1c4c(c5ccccc5n4Cc4ccccc4)C[C@]4(O)[C@H](C2)N(CC2CC2)CC[C@@]314"
  AC50: "31.6 µM (inconclusive)"
- compound: "Cc1cc(C)cc(-n2nnnc2SCC(=O)Nc2nc(-c3ccc(F)cc3)cs2)c1"
  AC50: "3.16 µM (inconclusive)"
- compound: "O=C(O)COc1ccc(-c2nccc(-c3cccs3)n2)cc1"
  AC50: "15.8 µM (inconclusive)"
- compound: "COc1cc2nncc(SCc3ccc(Cl)c(Cl)c3)c2cc1OC"
  AC50: "0.794 µM (inconclusive)"
- compound: "C[C@@H](C(=O)NCc1cccc2ccccc12)[C@H]1C[C@]1(C)[C@H](NC(=O)OCc1ccccc1)c1ccccc1"
  AC50: "25.1 µM (inconclusive)"

Give its AC50 value. Item: "CCCCCCCC/C=C\CCCCCCCC(=O)N[C@@H](CO)Cc1ccc(O)cc1"
25.1 µM (inconclusive)

Can you look up the measured AC50 of COCC1C2CC[C@H]3C(OCc4ccc(F)cc4C(F)(F)F)OC[C@]4(C)[C@H]3C2=C(CN4C(=O)OC(C)(C)C)[C@H](C)C1COC (some centres not stated) for me?
31.6 µM (inconclusive)
